I'd be grateful if you could share measured Activity for these entries.
- protocol-text: Acute toxicity in Albino mouse assessed as change in lymphocytes at 50 to 2000 mg/kg, po measured after 14 days (reference value: 21%)
- Format: organism-based
- stated-conditions: in vivo, 336 h, dose 50-2000 mg/kg, time 14 day
State the answer as a number, implicitly in %.

Activity reading for COc1ccc(C2C(Cl)C(=O)N2C2=C(Cl)C(=O)c3ccccc3C2=O)cc1 (configuration not stated) : 32

Activity reading for O=C1C(Cl)=C(N2C(=O)C(Cl)C2c2ccc(Cl)cc2)C(=O)c2ccccc21 (configuration not stated) : 44

Activity reading for `O=C1C(Cl)=C(Cl)C(=O)c2ccccc21` : 53

Activity reading for CCOc1cc(C2C(Cl)C(=O)N2C2=C(Cl)C(=O)c3ccccc3C2=O)ccc1O (configuration not stated) : 34

Activity reading for `NC1=C(Cl)C(=O)c2ccccc2C1=O` : 36

Activity reading for CN(C)c1ccc(C2C(Cl)C(=O)N2C2=C(Cl)C(=O)c3ccccc3C2=O)cc1 (configuration not stated) : 34

Activity reading for O=C1C(Cl)=C(N2C(=O)C(Cl)C2c2ccc([N+](=O)[O-])cc2)C(=O)c2ccccc21 (configuration not stated) : 39

====

- protocol-text: Acute toxicity in Albino mouse assessed as change in monocytes at 50 to 2000 mg/kg, po measured after 14 days (reference value: 1%)
- Format: organism-based
- stated-conditions: in vivo, 336 h, dose 50-2000 mg/kg, time 14 day
I'd be grateful if you could share measured Activity for these entries.
State the answer as a number, implicitly in %.

Activity reading for `NC1=C(Cl)C(=O)c2ccccc2C1=O` : 1

Activity reading for O=C1C(Cl)=C(Cl)C(=O)c2ccccc21 [Dichlon] : 1

Activity reading for CN(C)c1ccc(C2C(Cl)C(=O)N2C2=C(Cl)C(=O)c3ccccc3C2=O)cc1 (configuration not stated) : 1

Activity reading for CCOc1cc(C2C(Cl)C(=O)N2C2=C(Cl)C(=O)c3ccccc3C2=O)ccc1O (configuration not stated) : 1

Activity reading for O=C1C(Cl)=C(N2C(=O)C(Cl)C2c2ccc(Cl)cc2)C(=O)c2ccccc21 (configuration not stated) : 1

Activity reading for COc1ccc(C2C(Cl)C(=O)N2C2=C(Cl)C(=O)c3ccccc3C2=O)cc1 (configuration not stated) : 1

Activity reading for O=C1C(Cl)=C(N2C(=O)C(Cl)C2c2ccc([N+](=O)[O-])cc2)C(=O)c2ccccc21 (configuration not stated) : 1

====

- protocol-text: Cytotoxicity against african green monkey Vero cells assessed as cell viability at 50 ug/ml by MTT assay
- Format: toxicity, cell-based
- stated-conditions: chlorocebus sabaeus, at 50 µg/mL, read-out: Activity
metric-name: viability at 50 ug/ml (%)
State the answer as a number, implicitly in %.

viability at 50 ug/ml reading for O=C1C(Cl)=C(N2C(=O)C(Cl)C2c2ccc(Cl)cc2)C(=O)c2ccccc21 (configuration not stated) : 24.2

viability at 50 ug/ml reading for COc1ccc(C2C(Cl)C(=O)N2C2=C(Cl)C(=O)c3ccccc3C2=O)cc1 (configuration not stated) : 8.7

viability at 50 ug/ml reading for `NC1=C(Cl)C(=O)c2ccccc2C1=O` : 9.3

viability at 50 ug/ml reading for `O=C1C(Cl)=C(Cl)C(=O)c2ccccc21` : 36.1

viability at 50 ug/ml reading for CN(C)c1ccc(C2C(Cl)C(=O)N2C2=C(Cl)C(=O)c3ccccc3C2=O)cc1 (configuration not stated) : 25.4

viability at 50 ug/ml reading for O=C1C(Cl)=C(N2C(=O)C(Cl)C2c2ccc([N+](=O)[O-])cc2)C(=O)c2ccccc21 (configuration not stated) : 21.4

viability at 50 ug/ml reading for CCOc1cc(C2C(Cl)C(=O)N2C2=C(Cl)C(=O)c3ccccc3C2=O)ccc1O (configuration not stated) : 30.6
